These measurements were taken from ChEMBL document CHEMBL1201862.

# System: U-251
# assay-summary: NCI tumour cell line growth inhibition, 48 h
Active and inactive are the calls of the source. Cut-off read from the data, not from the text of the source: active = GI50 up to about 1.1 µM and inactive = higher.
Your reply should match one of these outcome classes. active, inactive

See these solved cases before continuing.
compound="CC(=O)OC1c2ccccc2CCCCCCC12OCCO2 (stereo unspecified)" assigned_category=inactive
compound=NNC(=O)c1ccccc1NC(=O)/C(=C/c1ccccc1)NC(=O)c1ccccc1 assigned_category=inactive
compound=O=C1C=C(Nc2ccccc2C(=O)CC(=O)C(=O)Nc2ccc(Cl)cc2)c2ccccc2C1=O assigned_category=inactive
compound="N#CC(c1ccccc1)c1nc2ccc(N)cc2[n+]([O-])c1C(C#N)c1ccccc1 (stereo unspecified)" assigned_category=inactive
compound=C/C(=N/N)c1sc(-c2nc(C)c(/C(C)=N\N)s2)nc1C assigned_category=inactive

What classification did Cc1c(O)nc(/C=C/C(=O)O)nc1C(=O)O end up with in this test? inactive

What classification did CCOC(=O)c1cccc(/N=N/Nc2cccc(C(=O)OCC)c2)c1 end up with in this test? inactive

###

# System: OVCAR-3
# assay-summary: NCI tumour cell line growth inhibition, 48 h
Calls of active or inactive are those of the source. No stated cut-off is given here; in the data, active = GI50 up to about 1.1 µM and inactive = higher.
# GI50 per entry

// worked examples, GI50 included
molecule="C[C@@H]1CC[C@@]2(C)OC(c3ccccc3)[C@H](CO)N2C1=O (some centres undefined)" outcome_measure=GI50 reported_value="> 100 µM (inactive)"
molecule=COc1ccc(C=C2C(=O)OC(C)(C)OC2=O)cc1OC outcome_measure=GI50 reported_value="> 100 µM (inactive)"
molecule=O=c1[nH]nc(Cc2c[nH]c3ccccc23)o1 outcome_measure=GI50 reported_value="> 100 µM (inactive)"

Query molecule follows.
Give a short answer stating reported GI50 for CC1=NN(c2nc(N)nc(CSc3cc(Cl)c(C)cc3S(N)(=O)=O)n2)C(C)(C)C1 . > 10 µM (inactive)

###

# Test system: SK-MEL-5
# assay-summary: NCI tumour cell line growth inhibition, 48 h
Activity calls are given as the source filed them. Rule as the data show it: active = GI50 up to about 1.1 µM and inactive = higher.
outcome-measure: GI50

// worked examples, GI50 included
molecule="COC(=O)/C(=N\\NC(=S)NN)C(C(=O)OC)C(=O)C(=O)Nc1cccc(C(F)(F)F)c1 (stereo unspecified)" reported_value="> 100 µM (inactive)"
molecule=C[C@H](CCC(=O)NCCS(=O)(=O)O)[C@H]1CC[C@H]2[C@@H]3[C@H](O)C[C@@H]4C[C@H](O)CC[C@]4(C)[C@H]3CC[C@]12C reported_value="> 100 µM (inactive)"

Give a short answer stating reported GI50 for COc1ccc2nc3cc(Cl)ccc3c(Sc3ccccc3[N+](=O)[O-])c2c1 . > 100 µM (inactive)

Give a short answer stating reported GI50 for CC1(C)[C@H]2CC[C@]1(C)[C@H](OC(=O)NNC(=O)O[C@@H]1C[C@@H]3CC[C@@]1(C)C3(C)C)C2 . 12.6 µM (inactive)

Give a short answer stating reported GI50 for O=C1Nc2ccc(Cl)cc2C(=O)N2CCC[C@@H]12 . > 100 µM (inactive)

Give a short answer stating reported GI50 for N=C(N)NS(=O)(=O)c1ccc(Nc2c3ccccc3nc3c(C(=O)N4CCN(CCO)CC4)ccc(Cl)c23)cc1 . > 100 µM (inactive)

###

# Tested on: KM12
# assay-summary: NCI tumour cell line growth inhibition, 48 h
The source made the active and inactive calls. Rule as the data show it: active = GI50 up to about 1.1 µM and inactive = higher.
# GI50 per entry

// worked examples, GI50 included
compound="FC(F)(F)c1ccc2c(c1)nc(Cc1ccccc1)n2C[C@@H]1CCCN2CCCCC12 (some centres not stated)" outcome_measure=GI50 reported_value="15.8 µM (inactive)"
compound="C[C@]12CCC3[C@@H](CC[C@@H]4c5nonc5CC[C@]34C)C1CC[C@@H]2O (some centres not stated)" outcome_measure=GI50 reported_value="37.8 µM (inactive)"
compound=Cc1cccc2oc3c(CC(=O)O)cccc3c(=O)c12 outcome_measure=GI50 reported_value="> 100 µM (inactive)"
compound=O=P(O)(O)CCP(=O)(O)O outcome_measure=GI50 reported_value="> 100 µM (inactive)"
compound=Cc1c2ncccc2c(C)c2c1[nH]c1ccccc12 outcome_measure=GI50 reported_value="10.3 µM (inactive)"

Check KM12 data and give GI50 for N=C(N)NS(=O)(=O)c1ccc(Nc2c3ccccc3nc3c(C(=O)N4CCN(CCO)CC4)ccc(Cl)c23)cc1 . > 100 µM (inactive)

Check KM12 data and give GI50 for N/N=C1/C2CN3CCN(C2)CC1(c1ccc([N+](=O)[O-])cc1)C3 . > 100 µM (inactive)

###

# Tested on: MDA-N
# assay-summary: NCI tumour cell line growth inhibition, 48 h
Active and inactive are the calls of the source. Cut-off read from the data, not from the text of the source: active = GI50 up to about 1.1 µM and inactive = higher.
# GI50 per entry

// worked examples, GI50 included
compound=N#C/C(=C\c1ccc(F)cc1)c1nc2ccccc2c(=O)[nH]1 reported_value="> 100 µM (inactive)"
compound=CCCNC(=O)Cn1c2c(c3ccccc31)CCCC2 reported_value="68.7 µM (inactive)"
compound=CCOC(=O)N1CCN(Cc2cc(=O)n3ccc(C)cc3n2)CC1 reported_value="> 100 µM (inactive)"
compound="CC1CN=C(Nc2cccc(C(F)(F)F)c2)S1 (centres undefined)" reported_value="40.6 µM (inactive)"
compound="Cn1ccc2c(c1=O)C(=O)OC2(C)C [CERPEGIN]" reported_value="> 100 µM (inactive)"

Check MDA-N data and give GI50 for Cn1c2ccccc2c(=O)c2c(O)cc3c(c21)C1OCC(C)(O)C1O3 (centres undefined) . > 100 µM (inactive)

Check MDA-N data and give GI50 for C(=N\c1nc2cc3sc(/N=C/c4ccccc4)nc3cc2s1)/c1ccccc1 . > 100 µM (inactive)

Check MDA-N data and give GI50 for COc1cc2ccc(=O)oc2cc1O [SCOPOLETIN] . > 100 µM (inactive)

Check MDA-N data and give GI50 for C1OCN2c3nonc3N3COCN4c5nonc5N1C2C43 (centres undefined) . 62.8 µM (inactive)

###

# System: SF-268
# assay-summary: NCI tumour cell line growth inhibition, 48 h
Calls of active or inactive are those of the source. Cut-off read from the data, not from the text of the source: active = GI50 up to about 1.1 µM and inactive = higher.
Your reply should match one of these outcome classes. active, inactive

What classification did Cn1c2ccccc2c(=O)c2c(O)cc3c(c21)C1OCC(C)(O)C1O3 (stereo not given) end up with in this test? inactive

What classification did COc1ccc(/C=C2/CCS(=O)(=O)c3ccc(C)cc3C2=O)cc1OC end up with in this test? inactive

What classification did S=C(N/N=C(/c1ccccc1)c1ccccn1)Nc1cccc(Cl)c1 end up with in this test? active

What classification did CCOc1cc(NC(C)=O)ccc1C(=O)NNC(=O)c1ccccc1OC(C)=O end up with in this test? inactive

What classification did CN(C)c1ccc(C2ON=C(c3ccccc3)N2C23CC4CC(CC(C4)C2)C3)cc1 (stereo not given) end up with in this test? inactive

###

# Test system: COLO 205
# assay-summary: NCI tumour cell line growth inhibition, 48 h
The source made the active and inactive calls. Rule as the data show it: active = GI50 up to about 1.1 µM and inactive = higher.
outcome-measure: GI50

compound="CCCC(=O)c1c(NOC2OC(COC(C)=O)C(OC(C)=O)C(OC(C)=O)C2OC(C)=O)nc(OC)n(C)c1=O (configuration not stated)" system_under_test="COLO 205" outcome_measure=GI50 reported_value="> 100 µM (inactive)"
compound=O=C1NC(=S)N/C1=C\c1ccc(Br)s1 system_under_test="COLO 205" outcome_measure=GI50 reported_value="> 100 µM (inactive)"
compound=N#Cc1ccccc1C#C/C=C\C#Cc1ccccn1 system_under_test="COLO 205" outcome_measure=GI50 reported_value="27.4 µM (inactive)"
compound=NC(S)=Nc1cc(Cl)ccc1Cl system_under_test="COLO 205" outcome_measure=GI50 reported_value="> 100 µM (inactive)"
compound="CC(=O)OCC(OC(C)=O)C(OC(C)=O)C(OC(C)=O)C(C=NN(C(C)=O)S(=O)(=O)c1ccc(/C=C2\\NC(=O)NC2=O)cc1)OC(C)=O (configuration not stated)" system_under_test="COLO 205" outcome_measure=GI50 reported_value="> 100 µM (inactive)"
compound=O=C1CC(=O)n2cnc3cccc(c32)N1 system_under_test="COLO 205" outcome_measure=GI50 reported_value="> 100 µM (inactive)"

Give a short answer stating reported GI50 for CCOc1cc(NC(C)=O)ccc1C(=O)NNC(=O)c1ccccc1OC(C)=O . 21.5 µM (inactive)

Give a short answer stating reported GI50 for O=C1/C(=C/Cc2ccco2)N=C(c2ccccc2)N1c1nc2ccc(Sc3ccccc3)cc2[nH]1 . 18.2 µM (inactive)

###

# Tested on: U-251
# assay-summary: NCI tumour cell line growth inhibition, 48 h
The source made the active and inactive calls. No stated cut-off is given here; in the data, active = GI50 up to about 1.1 µM and inactive = higher.
Your reply should match one of these outcome classes. active, inactive

See these solved cases before continuing.
compound="CC(NC(=O)C(C)C(=O)Nc1ccc(C(F)(F)F)cc1)C(N)=O (centres undefined)" system_under_test=U-251 assigned_category=inactive
compound=Sc1nnc(-c2ccccc2)n1/N=C\c1ccc(-c2ccc(Cl)cc2)o1 system_under_test=U-251 assigned_category=inactive
compound=O=S(=O)(O)c1cc(/N=N/c2cccc3ccccc23)c(O)c2ncccc12 system_under_test=U-251 assigned_category=inactive
compound=Cc1nc2c(o1)/C(=N\c1ccccc1)c1nc(C)oc1/C2=N/c1ccccc1 system_under_test=U-251 assigned_category=inactive
compound=COc1cc2c(cc1OC)C1(c3ccccc3)CN(C2)Cc2cc(OC)c(OC)cc21 system_under_test=U-251 assigned_category=inactive
compound=Cc1ccc(N(O)C(C)(C)C)cc1 system_under_test=U-251 assigned_category=inactive

What classification did CCN1/C(=C/c2ccc3ccccc3[n+]2CC)C=Cc2ccccc21 end up with in this test? active

What classification did N#Cc1c2c([nH]c(=O)c1C#N)CCCC2 end up with in this test? inactive

What classification did CCOC(=O)C1Cc2[nH]c3ccccc3c2C(C)C1C (centres undefined) end up with in this test? inactive
